system: RARb:RXRa (NR concentration 270 nM, RXRa partner concentration 90 nM); experiment: PBM binding z-score (relative to random genomic background probes); higher = stronger binding; sequences stand for … in GC…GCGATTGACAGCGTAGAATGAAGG
Label 0 if PBM binding z-score falls below 3; label 1 in every other case.

> print(dat)
                      primary.sequence  class
 1  TAGCCTAGGTCAGAGCGGGCCAGTATACGCTATA      0
 2  CCTAGCAGGCCAGGATCACTCAAGCATTTCGCTT      0
 3  TAGCCTAGGTCATTGGGCCAGAATAGTACGCATC      1
 4  CCTTACGGGTCACTGACAGGTTATAGGATTTGGA      1
 5  TCATATAGGTAAAAGGTGAAAATCGGTGTGGTAA      0
 6  TCTATTAGTTGATTAGCGCAACCGAAACAGCGGA      0
 7  TTACCAAGGTGAGCTGACGTCGTTGATCCAACTC      0
 8  TCTTGTAGTTCAACAGGAGGTTAAGAAAGATCGA      0
 9  CGTCCAAGGTCAAAGGTTAGTGAAGAGATGACGG      1
10  CGTCCACGGTCAAAGGTCAGTGAAGAGATGACGG      1
11  TCTTGTAGATCAGCAGGTTAATAAAGCTGGCCAA      0
12  CAGACTGGGGCAAGGTTACCATAACGCACAGCCA      0
13  CCTTACGGGTCACTCCAGATTATAGCATCGGAGT      1
14  AGAACGAGGGCAATGAGTTGATAGTACGGGTGGC      0
15  CCAGACAGGTGAAAGGTAACCCAGTCTGGTACGC      0
16  CCGACTGAGGCAGAAAGGTTACCATACCATCCGG      0
17  CATACAGGGTCAGCGAGGCCAGAGTAGGGACGGC      1
18  ACTATAAGTTGAGACGAGGGCAACCGATAGGTTG      0
19  TAACCTAGGTCATGCGGGCCAGTATAGTGTCGGC      1
20  TCTGCTAGGTCAACGGTGGTCAGCTAATCTGCTA      1
21  AGAATGAGGTTCCCAAAGATCAGGGAAACGCTTG      0
22  CGTCCAAGGTCACTGCTAGGTCAGTGAAAGCATT      1
23  ATCTGTAGGTTACATCCGGGTCATTCAGGCTATG      0
24  GCATATTGGTAATACAAGGTGAAAGTCCGATTGT      0
25  ACTATTAGTCGAGACGAGGGCAACCGATAGGTTG      0
26  TCTAGTTCGTCAAAGGTCACACACTCGAAATGCG      1
27  GGAACGAGGGCAAAGTTGTTAGCATCTGTCGACG      0
28  ATCTCTAGGTAACCAAGTTCAGAGAATGCCGAAC      0
29  TCAGACAGGTGAAGGTAACTCCGGTACGCAGTCG      0
30  CGAACTAGGTCATTGACACGACAGTGAATAGTAA      1
31  CGAACTAGGTCATTGACAGGACGGTGAATAGTAA      1
32  TCATATAGGTAAACAGGTGGAAGTCCGTAAGTTA      0
33  GCTTGTAGATCAAGGTTAAGAGAGACTAAGCTAA      0
34  CGACCAAGGTGAACAAGGTCGTTGATTACTATTC      0
35  ATCCCTAGGTAAAGTTCAGTGAAAGATCGATAGA      0
36  TCTATTAGTTGGTTAGGGCAACCGAAACAGCGGA      0
37  GTACCTAGGTGAATAGGTCGTTGATGAGTAGGCG      0
38  TCTTGTAGATGAGCAGGTTAAGAAAGCTGGCCAA      0
39  AGAATGAGGTTACCAAATATCAGGGAAACGCTTG      0
40  TCTTATAGATCAACAGGAGGTTAAGAAAGATCGA      0
41  AGTCAAAGTTCACTAGGTGACGTAAGATTCAGCT      1
